assay: Metabolic stability in human microsomes; format: ADME, Microsome
REPORTED_ENDPOINT: Stability

Example cases with answers are listed next.
{"COMPOUND": "CCCCOC(=O)N1CCN(C(=O)[C@H](CCC(=O)O)NC(=O)c2cc(N3CCC(CNCC)CC3)cc(-c3ccccc3)n2)CC1", "Stability": "Stable"}
{"COMPOUND": "CCCCCOC(=O)N1CCN(C(=O)[C@H](CCC(=O)O)NC(=O)c2cc(N3CCNCC3)cc(-c3ccccc3)n2)CC1", "Stability": "Stable"}
{"COMPOUND": "CCCCCOC(=O)N1CCN(C(=O)[C@H](CCC(=O)O)NC(=O)c2cc(N3CCN(CCO)CC3)cc(-c3ccccc3)n2)CC1", "Stability": "Stable"}
{"COMPOUND": "CCCCOC(=O)N1CCN(C(=O)[C@H](CCC(=O)O)NC(=O)c2cc(N3CCC(CN(CC)CC)CC3)cc(-c3ccccc3)n2)CC1", "Stability": "Stable"}
{"COMPOUND": "CCCCCOC(=O)N1CCN(C(=O)[C@H](CCC(=O)O)NC(=O)c2cc(N3CC(O)C3)cc(-c3ccccc3)n2)CC1", "Stability": "Stable"}
{"COMPOUND": "CCCCCOC(=O)N1CCN(C(=O)[C@H](CCC(=O)O)NC(=O)c2cc(N3CCCC(N4CCCC4)C3)cc(-c3ccccc3)n2)CC1 (some centres not stated)", "Stability": "Stable"}

INPUT: Supply recorded Stability for CCCCOC(=O)N1CCN(C(=O)[C@H](CCC(=O)O)NC(=O)c2cc(N3CCC(CNC)CC3)cc(-c3ccccc3)n2)CC1 here.
OUTPUT: Stable

Entry source: ChEMBL document CHEMBL1156904
